# method-notes: Inhibition of Salmonella enterica serovar Abortus equi lipopolysaccharide-stimulated NF-kappaB induction in HEK-Blue cells assessed as expression of secreted alkaline phosphatase by seAP assay
# Type: cell-based
# cond: hek-blue
experimental-readout: IC50 (nM)
API: value field is a number in nM; no unit string.

Enquiry: Give the reported IC50 for this sequence. POLYMYXIN B
Return: 562

====

# method-notes: Inhibition of Pseudomonas aeruginosa lipopolysaccharide-stimulated NF-kappaB induction in HEK-Blue cells assessed as expression of secreted alkaline phosphatase by seAP assay
# Assay type: cell-based
# cond: Pseudomonas aeruginosa, HEK-Blue
experimental-readout: IC50 (nM)
API: value field is a number in nM; no unit string.

Enquiry: Give the reported IC50 for this molecule. CCCCCCCCCCCCCCCCNCCCNCCCNCCCCNCCCN.O=C(O)C(F)(F)F
Return: 30

====

# method-notes: Inhibition of Escherichia coli 055:B5 lipopolysaccharide-stimulated NF-kappaB induction in HEK-Blue cells assessed as expression of secreted alkaline phosphatase by seAP assay
# Format: cell-based
# cond: Escherichia coli, HEK-Blue
experimental-readout: IC50 (µM)
API: value field is a number in µM; no unit string.

Enquiry: Give the reported IC50 for this compound. CCCCCCCCCCCCCCCCNCCCNCCCNCCCCNCCCN.O=C(O)C(F)(F)F
Return: 0.03

====

# method-notes: Inhibition of Escherichia coli O111:B4 lipopolysaccharide-stimulated NF-kappaB induction in HEK-Blue cells assessed as expression of secreted alkaline phosphatase by seAP assay
# Type: cell-based
# cond: hek-blue
experimental-readout: pIC50
Interpret pIC50 as the negative base-10 log of the concentration measured in mol/L.

Enquiry: Give the reported pIC50 for this sequence. POLYMYXIN B
Return: 7.52

====

# method-notes: Inhibition of Escherichia coli 055:B5 lipopolysaccharide-stimulated NF-kappaB induction in HEK-Blue cells assessed as expression of secreted alkaline phosphatase by seAP assay
# Assay type: cell-based
# cond: hek-blue
experimental-readout: IC50 (µM)
API: value field is a number in µM; no unit string.

Enquiry: Give the reported IC50 for this sequence. POLYMYXIN B
Return: 0.03

====

# method-notes: Inhibition of Vibrio cholerae lipopolysaccharide-stimulated NF-kappaB induction in HEK-Blue cells assessed as expression of secreted alkaline phosphatase by seAP assay
# Type: cell-based
# cond: hek-blue
experimental-readout: IC50 (nM)
API: value field is a number in nM; no unit string.

Enquiry: Give the reported IC50 for this sequence. POLYMYXIN B
Return: 30
